- assay overview: in vivo
- measurement setup: Sprague-Dawley, rat, plasma, po, 3 mg/kg
- Description: Drug concentration in plasma of Sprague-Dawley rat at 3 mg/kg, po measured after 4 hrs by LC-MS/MS analysis
parameter: concentration at 4 h (ng/mL)
Just the number please, in ng/mL, no unit attached.

Ask | For the compound COc1ccccc1[C@H](Cn1c(=O)n([C@H]2C[C@@](C)(C(=O)O)C2)c(=O)c2c(C)c(-c3ncco3)sc21)OC1CCOCC1 , what concentration at 4 h is on record?
Reply | 72.8

* * *

- tested system: Acetyl-CoA carboxylase 1 (Homo sapiens)
Label Y when IC50 < 1 nM; otherwise N.

These solved cases illustrate the format of a correct answer.
INSERT INTO measurements (given_smiles, tested_system, assigned_label) VALUES
  ('COc1ccccc1[C@H](Cn1c(=O)n([C@H]2C[C@@](C)(C(=O)O)C2)c(=O)c2c(C)c(-c3ncco3)sc21)OC1CCOCC1', 'Acetyl-CoA carboxylase 1 (Homo sapiens)', 'Y'),
  ('COc1ccccc1[C@H](Cn1c(=O)n([C@H]2C[C@@H](C(=O)O)C2)c(=O)c2c(C)c(-c3ncco3)sc21)OC1CCOCC1', 'Acetyl-CoA carboxylase 1 (Homo sapiens)', 'Y'),
  ('COc1ccccc1[C@H](Cn1c(=O)n([C@H]2C[C@](C)(C(=O)O)C2)c(=O)c2c(C)c(-c3ncco3)sc21)OC1CCOCC1', 'Acetyl-CoA carboxylase 1 (Homo sapiens)', 'N'),
  ('COc1ccccc1[C@H](Cn1c(=O)n(-c2c(C)ccn3ccnc23)c(=O)c2c(C)c(-c3ncco3)sc21)OC1CCOCC1', 'Acetyl-CoA carboxylase 1 (Homo sapiens)', 'N');

Ask | Record COc1ccccc1[C@H](Cn1c(=O)n(C(C)(C)C(=O)O)c(=O)c2c(C)c(-c3ncco3)sc21)OC1CCOCC1 : is its IC50 strictly below 1 nM?
Reply | Y

* * *

- assay overview: Half life in Sprague-Dawley rat at 3 mg/kg, po measured for 0.25 to 24 hrs by LC-MS/MS analysis
- Type: ADME, organism-based
- measurement setup: in vivo, time 0.25-24 hrs
parameter: half-life

INSERT INTO results (given_smiles, value_observed) VALUES
  ('COc1ccccc1[C@H](Cn1c(=O)n([C@H]2C[C@@](C)(C(=O)O)C2)c(=O)c2c(C)c(-c3ncco3)sc21)OC1CCOCC1', '3.3 h');

Here is another compound to look at.
Ask | Given COc1ccccc1[C@H](Cn1c(=O)n([C@H]2C[C@@H](C(=O)O)C2)c(=O)c2c(C)c(-c3ncco3)sc21)OC1CCOCC1 , state its recorded half-life.
Reply | 0.4 h

* * *

- tested system: Acetyl-CoA carboxylase 1 (Homo sapiens, UniProt Q13085)
parameter: IC50 (nM)
Please give a number only; it is taken to be in nM.

Examples with their reported IC50 follow.
INSERT INTO measurements (given_smiles, tested_system, unit, value_observed) VALUES
  ('COc1ccccc1[C@H](Cn1c(=O)n([C@H]2C[C@](C)(C(N)=O)C2)c(=O)c2c(C)c(-c3ncco3)sc21)OC1CCOCC1', 'Acetyl-CoA carboxylase 1 (Homo sapiens, UniProt Q13085)', 'nM', 1.05),
  ('COc1ccccc1[C@H](Cn1c(=O)n(C2CN(C(=O)c3ncc[nH]3)C2)c(=O)c2c(C)c(-c3ncco3)sc21)OC1CCOCC1', 'Acetyl-CoA carboxylase 1 (Homo sapiens, UniProt Q13085)', 'nM', 1.52),
  ('COc1ccccc1[C@H](Cn1c(=O)n(C2CN(CC(F)(F)F)C2)c(=O)c2c(C)c(-c3ncco3)sc21)OC1CCOCC1', 'Acetyl-CoA carboxylase 1 (Homo sapiens, UniProt Q13085)', 'nM', 0.95);

Ask | Please state recorded IC50 (tested on Acetyl-CoA carboxylase 1 (Homo sapiens, UniProt Q13085)) of COc1ccccc1[C@H](Cn1c(=O)n(C2CN(C(=O)N3CC(C)(O)C3)C2)c(=O)c2c(C)c(-c3ncco3)sc21)OC1CCOCC1
Reply | 9.47
